Tested on: MCF7
Test: NCI tumour cell line growth inhibition, 48 h
Activity calls are given as the source filed them. Cut-off read from the data, not from the text of the source: active = GI50 up to about 1.1 µM and inactive = higher.
Metric: GI50

- CC1(C)N=C(N)N=C(N)N1c1ccc(OCC(=O)Nc2cccc(S(=O)(=O)F)c2)c(Cl)c1: 6.03 µM (inactive)
- CC(C)c1ccccc1[S+]([O-])c1ccccc1C(C)(C)O (stereo not drawn): > 100 µM (inactive)
- O=C1C(=O)c2ccccc2C=C1[N+](=O)[O-]: 22.9 µM (inactive)
- CN(c1ccc(Cl)cc1)S(=O)(=O)c1ccccc1: 52.4 µM (inactive)
- Clc1ccc(Cc2nc3ccccc3nc2-c2cccc(Cl)c2)cc1: 2.92 µM (inactive)
- N#Cc1ccc(-c2nc(C#N)c(N)o2)cc1: > 10 µM (inactive)
- C=C(CCOC)CCC1CCCCC(=C)[C@H]1O (stereo partly drawn): > 100 µM (inactive)
- CC(=O)CC(O)(C(F)(F)Cl)C(F)(F)Cl: > 10 µM (inactive)
- CCOC(=O)C(CCSC)(CCSC)C(=O)OCC: > 100 µM (inactive)
- COC(=O)C1=NN2c3ccccc3CN([C@@H](C)c3ccccc3)C(=O)[C@@H]2[C@H]1c1ccccc1: > 100 µM (inactive)
- Cc1nc(N(C(C)C)C(C)C)c(C(C)C)o1: > 100 µM (inactive)
- CC1OC(OCC2OC(Oc3ccc(C4CC(=O)c5c(O)cc(O)cc5O4)cc3O)C(O)C(O)C2O)C(O)C(O)C1O (stereo not drawn): > 100 µM (inactive)
- CCc1n[nH]c(=O)n1-c1ccc2ccccc2c1: > 100 µM (inactive)
- O=C(Cl)C1=C(c2ccccc2)C1c1ccccc1 (stereo not drawn): > 100 µM (inactive)
- Cc1nc2ccc(Cl)cc2c2c1CCO2: > 100 µM (inactive)
- CC(C)(C)C1CCC2c3c([nH]c4ccccc34)C3C(=O)N(c4cccc([N+](=O)[O-])c4)C(=O)C3C2C1 (stereo not drawn): 32.5 µM (inactive)
- Cc1n[nH]/c(=N\S(=O)(=O)c2ccc(/N=N/c3c(O)c(C(=O)O)cc4ccccc34)cc2)s1: > 100 µM (inactive)
- Clc1ccc(/C=C/c2nc(Cl)c(-c3ccc(Cl)cc3)c(Cl)n2)cc1: 45.5 µM (inactive)
- CN(CCCNc1ccc2ncn3c4ccccc4c(=O)c1c23)CCCN1C(=O)c2cccc3cc([N+](=O)[O-])cc(c23)C1=O: 0.00541 µM (active)
- CCCCCCCCCCCCCCCCP(=O)(O)OP(=O)(O)OCC1OC(n2cnc3c(N)ncnc32)C(O)C1O (stereo not drawn): 22.6 µM (inactive)
- O=C(c1cc2c(c3ccccc13)NCCN=C2C(F)(F)F)C(F)(F)F: 19.2 µM (inactive)
- Nn1c(CCCCCCCCc2nnc(COc3c(O)ccc4ccccc34)n2N)nnc1COc1c(O)ccc2ccccc12: > 100 µM (inactive)
- CCN1CN(c2ccccc2)C2(CCN(CC(CC3OCCO3)c3ccc(F)cc3)CC2)C1=O (stereo not drawn): 2.26 µM (inactive)

* * *

Tested on: SK-MEL-5
Assay: NCI tumour cell line growth inhibition, 48 h
The source made the active and inactive calls. Rule as the data show it: active = GI50 up to about 1.1 µM and inactive = higher.
Metric: GI50

- CC12C=CC(C)(C3C(=O)C4C(C(=O)C31)C1(C)C=CC4(C)[S+]1[O-])[S+]2[O-] (stereo not given): 21.9 µM (inactive)
- COC1C(OC(=O)/C=C/C=C/C=C/C=C/C(=O)O)CCC2(CO2)C1C1(C)OC1CC=C(C)C (stereo not given): 18.5 µM (inactive)
- N#C/C(=C\c1ccccc1Br)C(=O)c1ccccc1: 16.5 µM (inactive)
- CCCCCCCCCCCCCCCCP(=O)(O)OP(=O)(O)OCC1OC(n2cnc3c(N)ncnc32)C(O)C1O (stereo not given): 29 µM (inactive)
- COC(=O)C(=O)C(C(C)=O)C(=O)NCc1ccc(OC)c(OC)c1 (stereo not given): > 100 µM (inactive)
